- subject-of-test: VvelCSP1 (Vespa velutina auraria, UniProt A0A384ZVP9)
- Sequence (A0A384ZVP9 entry or part of it): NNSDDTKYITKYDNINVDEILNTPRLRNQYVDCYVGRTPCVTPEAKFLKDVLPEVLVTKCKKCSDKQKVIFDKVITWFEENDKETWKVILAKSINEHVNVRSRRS
- protocol-notes: Fluorescence competitive binding assay (1-NPN probe) with VvelCSP1
- experimental-context: VvelCSP1, chemical 16 μM
Binary call on Raw fluorescence intensity with cut-off 100: strictly below means true (1), and equality or higher means false (0).

The examples below pair each entry with its known result.
>>> df
                                   compound  label_class
0       CCCCCCCCCCCCCCCCCCCCCCC [Tricosane]     true (1)
1  CCCCCCCCCCCCCCCCCCCCCCCCCCCCCC [Triacontane]    false (0)
2  CCCCCCCC/C=C\CCCCCCCCCCCCC [Z-9-Tricosene]    false (0)
3  CCCCCCCCCCCCCCCCCCCCCCCCCCC [Heptacosane]    false (0)
4   CCCCCCCCCCCCCCCCCCCCCCCCC [Pentacosane]    false (0)

Is Raw fluorescence intensity of CCCCCCCCCCCCCCCCCCC [Nanadecane] strictly below 100?
false (0)

Is Raw fluorescence intensity of CCCCCCCCCCCCCCCCCCCC [Eicosane] strictly below 100?
false (0)

Is Raw fluorescence intensity of CCCCCCCCCCCCCCCCCCCCCCCCCCCC [Octacosane] strictly below 100?
false (0)

Is Raw fluorescence intensity of CCCCCCCCCCCCCCCCCCCCCCCCCCCCC [Nonacosane] strictly below 100?
false (0)

* * *

- subject-of-test: VvelCSP4
- protocol-notes: Fluorescence competitive binding assay (1-NPN probe) with VvelCSP4
- Parameters: species or system Vespa velutina auraria
- experimental-context: VvelCSP4 2 μM, 1-NPN 1 μM, Tris-HCl pH 7.5, single experiment; read-out: IC50 (ligand concentration displacing 50% of the fluorescence intensity of the CSPs/NPN complex)
Property: IC50; scope: individual compounds
I only need the number, in µM, no unit after it.

# annotated cases, reported IC50 shown
>>> df
               line_notation  quantity_kind  quantitative_readout
0  CCCCCCCCCCCCCCCCCCCCCCCCC           IC50                  4.65
1      CCCCCCCCCCCCCCCCCCCCC           IC50                  19.8

Here is the next item to consider.
Report value only: IC50, VvelCSP4, CCCCCCCCCCCCCCCCCCCCCCCC
18.9

* * *

- System: VvelCSP4
- protocol-notes: Fluorescence competitive binding assay (1-NPN probe) with VvelCSP4
- Set-up: species or system Vespa velutina auraria
- experimental-context: VvelCSP4, chemical 16 μM
If the reported Raw fluorescence intensity equals or exceeds 100, assign criterion met. If not, assign criterion not met.

               line_notation        label_class
0     CCCCCCCCCCCCCCCCCCCCCC  criterion not met
1  CCCCCCCCCCCCCCCCCCCCCCCCC      criterion met

Reported Raw fluorescence intensity at or above 100? CCCCCCCCCCCCCCCCCCC
criterion met

Reported Raw fluorescence intensity at or above 100? CCCCCCCCCCCCCCCCCCCCC
criterion met

* * *

- subject-of-test: VvelCSP1 (Vespa velutina auraria, UniProt A0A384ZVP9)
- protocol-notes: Fluorescence competitive binding assay (1-NPN probe) with VvelCSP1
- experimental-context: VvelCSP1, chemical 0.5 μM
Binary call on Raw fluorescence intensity with cut-off 200: strictly below means label 1, and equality or higher means label 0.

The examples below pair each entry with its known result.
>>> print(df.to_string())
                    line_notation  label_class
0  CCCCCCCCCCCCCCCCCCCCCCCCCCCCCC      label 0
1      CCCCCCCC/C=C\CCCCCCCCCCCCC      label 0
2             CCCCCCCCCCCCCCCCCCC      label 0
3           CCCCCCCCCCCCCCCCCCCCC      label 1
4        CCCCCCCCCCCCCCCCCCCCCCCC      label 0
5   CCCCCCCCCCCCCCCCCCCCCCCCCCCCC      label 0
6       CCCCCCCCCCCCCCCCCCCCCCCCC      label 0
7      CCCCCCCCCCCCCCCCCCCCCCCCCC      label 1

Now for a further compound.
Is Raw fluorescence intensity of CCCCCCCCCCCCCCCCCCCCCCC strictly below 200?
label 1

* * *

- System: VvelCSP4
- protocol-notes: Fluorescence competitive binding assay (1-NPN probe) with VvelCSP4
- Set-up: species or system Vespa velutina auraria
- experimental-context: VvelCSP4, chemical 12 μM
If the reported Raw fluorescence intensity equals or exceeds 100, assign 1.0. If not, assign 0.0.

>>> print(df.to_string())
                    line_notation  label_class
0             CCCCCCCCCCCCCCCCCCC          1.0
1          CCCCCCCCCCCCCCCCCCCCCC          0.0
2      CCCCCCCC/C=C\CCCCCCCCCCCCC          0.0
3  CCCCCCCCCCCCCCCCCCCCCCCCCCCCCC          1.0
4     CCCCCCCCCCCCCCCCCCCCCCCCCCC          1.0

Reported Raw fluorescence intensity at or above 100? CCCCCCCCCCCCCCCCCCCCC
1.0

Reported Raw fluorescence intensity at or above 100? CCCCCCCCCCCCCCCCCCCCCCCCCCCCC
1.0

Reported Raw fluorescence intensity at or above 100? CCCCCCCCCCCCCCCCCCCC
1.0

Reported Raw fluorescence intensity at or above 100? CCCCCCCCCCCCCCCCCCCCCCCCC
1.0

Reported Raw fluorescence intensity at or above 100? CCCCCCCCCCCCCCCCCCCCCCC
1.0

Reported Raw fluorescence intensity at or above 100? CCCCCCCCCCCCCCCCCCCCCCCCCCCC
1.0

Reported Raw fluorescence intensity at or above 100? CCCCCCCCCCCCCCCCCCCCCCCCCC
1.0

Reported Raw fluorescence intensity at or above 100? CCCCCCCCCCCCCCCCCCCCCCCC
1.0

* * *

- Test system: VvelCSP4
- protocol-notes: Fluorescence competitive binding assay (1-NPN probe) with VvelCSP4
- Set-up: species or system Vespa velutina auraria
- experimental-context: VvelCSP4, chemical 8 μM
Binary call on Raw fluorescence intensity with cut-off 100: strictly below means rule met, and equality or higher means rule not met.

The examples below pair each entry with its known result.
In [3]: df
Out[3]:
                   line_notation   label_class
0        CCCCCCCCCCCCCCCCCCCCCCC  rule not met
1  CCCCCCCCCCCCCCCCCCCCCCCCCCCCC  rule not met
2     CCCCCCCC/C=C\CCCCCCCCCCCCC      rule met

Is Raw fluorescence intensity of CCCCCCCCCCCCCCCCCCCCC strictly below 100?
rule not met

Is Raw fluorescence intensity of CCCCCCCCCCCCCCCCCCCCCCCCCCCCCC strictly below 100?
rule not met

Is Raw fluorescence intensity of CCCCCCCCCCCCCCCCCCCCCCCCCC strictly below 100?
rule not met

* * *

- subject-of-test: VvelCSP1 (Vespa velutina auraria)
- protocol-notes: Fluorescence competitive binding assay (1-NPN probe) with VvelCSP1
- experimental-context: VvelCSP1, chemical 4 μM
Property: Raw fluorescence intensity; scope: individual compounds
// return just the number, without any unit appended

>>> print(df.to_string())
                                   compound  quantitative_readout
0  CCCCCCCCCCCCCCCCCCCCCCCCCCCCCC [Triacontane]                166.41

Return reported Raw fluorescence intensity. Input compound: CCCCCCCCCCCCCCCCCCC [Nanadecane]
171.35

Return reported Raw fluorescence intensity. Input compound: CCCCCCCCCCCCCCCCCCCCCCC [Tricosane]
116.63

Return reported Raw fluorescence intensity. Input compound: CCCCCCCCCCCCCCCCCCCCCCCCC [Pentacosane]
143.30

Return reported Raw fluorescence intensity. Input compound: CCCCCCCCCCCCCCCCCCCCC [Heneicosane]
138.38

Return reported Raw fluorescence intensity. Input compound: CCCCCCCCCCCCCCCCCCCCCCCC [Tetracosane]
157.66

* * *

- subject-of-test: VvelCSP1 (Vespa velutina auraria)
- protocol-notes: Fluorescence competitive binding assay (1-NPN probe) with VvelCSP1
- experimental-context: VvelCSP1, chemical 12 μM
If the reported Raw fluorescence intensity equals or exceeds 100, assign class 1. If not, assign class 0.

The examples below pair each entry with its known result.
In [3]: df
Out[3]:
                   line_notation  label_class
0  CCCCCCCCCCCCCCCCCCCCCCCCCCCCC      class 1
1     CCCCCCCC/C=C\CCCCCCCCCCCCC      class 1

Reported Raw fluorescence intensity at or above 100? CCCCCCCCCCCCCCCCCCCCCCCCCCC
class 1

Reported Raw fluorescence intensity at or above 100? CCCCCCCCCCCCCCCCCCCCCC
class 1

Reported Raw fluorescence intensity at or above 100? CCCCCCCCCCCCCCCCCCCCCCCCCCCC
class 1

Reported Raw fluorescence intensity at or above 100? CCCCCCCCCCCCCCCCCCCCCCC
class 0
